Would you mind telling me the reported DC50 of each entry?
biological target: KRAS-G12D (Homo sapiens, UniProt P01116, G12D); construct: endogenous in cells; host or cells: A-427 (ATCC), AGS, AsPc-1, Panc 04.03; experiment: KRAS-G12D degradation assay (Western Blot), A-427 cells; type: cell-based; settings: A427 cells, 24 h; numeric values
Sequence (P01116 1-188 isoform P01116-2 G12D): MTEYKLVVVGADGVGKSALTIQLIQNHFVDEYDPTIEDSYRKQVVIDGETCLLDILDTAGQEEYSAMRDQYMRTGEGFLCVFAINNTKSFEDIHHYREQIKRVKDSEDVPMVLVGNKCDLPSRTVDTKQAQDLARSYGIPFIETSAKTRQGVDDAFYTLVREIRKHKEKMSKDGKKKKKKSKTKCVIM

Use the examples below as a reference point.
molecule	measuredEndpoint	endpointValue
C#Cc1c(F)ccc2cc(O)cc(-c3ncc4c(N5CC6CCC(C5)N6)nc(OCC(C)CN5CCN(CC6CCC7(CC6)CCN(C(=O)c6ccc(OC)c(N8CCC(=O)NC8=O)c6)CC7)CC5)nc4c3F)c12 (centres unmarked) [Example 84]	DC50	4.67 nM
C#Cc1cccc2cc(O)cc(-c3ccc4c(N5CC6CCC(C5)N6)nc(OCC5(CN6CCN(CC7CCC8(CC7)CCN(C(=O)c7ccc(Cl)c(N9CCC(=O)NC9=O)c7)CC8)CC6)CC5)nc4c3F)c12 [Example 78]	DC50	10.1 nM
[2H]C([2H])(C1CCC2(CC1)CCN(C(=O)c1ccc(C)c(N3CCC(=O)NC3=O)c1)CC2)N1CCN(CC2(COc3nc(N4CC5CCC(C4)N5)c4ccc(-c5cc(O)cc6ccc(F)c(C#C)c56)c(F)c4n3)CC2)CC1 [Example 107]	DC50	4.98 nM
C#Cc1c(F)ccc2cc(O)cc(-c3ncc4c(N5CC6CCC(C5)N6)nc(OCC5(CN6CCN(CC7CCC8(CC7)CCN(C(=O)c7ccc(CC)c(N9CCC(=O)NC9=O)c7)CC8)CC6)CC5)nc4c3F)c12 [Example 243]	DC50	1.66 nM

Consider the additional molecule presented here.
In plain terms, C#Cc1c(F)ccc2cc(O)cc(-c3ccc4c(N5CC6CCC(C5)N6)nc(OCC5(CN6CCN(CC7CCC8(CC7)CCN(C(=O)c7ccc(OC)c(N9CCC(=O)NC9=O)c7)CC8)CC6)CC5)nc4c3F)c12 [Example 71] has a documented DC50 of 2.1 nM

###

target: KRAS-G12D (Homo sapiens, UniProt P01116, G12D); construct: endogenous in cells; host or cells: A-427 (ATCC), AGS, AsPc-1, Panc 04.03; assay: KRAS-G12D degradation assay (Western Blot), A-427 cells; format: cell-based; settings: A427 cells, 24 h; class symbols
measuredEndpoint: DC50

molecule	endpointValue
C#Cc1c(F)ccc2cc(O)cc(-c3ncc4c(N5CC6CCC(C5)N6)nc(NCC5(CN6CCN(CC7CCC8(CC7)CCN(C(=O)c7ccc(Cl)c(N9CCC(=O)NC9=O)c7)CC8)CC6)CC5)nc4c3F)c12	≤ 0.05 µM

Each molecule below has a recorded value; state its DC50.
1. C#Cc1c(F)ccc2cc(O)cc(-c3ncc4c(N5CC6CCC(C5)N6)nc(OCC(C)(C)CN5CCN(CC6CCC7(CC6)CCN(C(=O)c6ccc(OC)c(N8CCC(=O)NC8=O)c6)CC7)CC5)nc4c3F)c12
2. C#Cc1c(F)ccc2cc(O)cc(-c3ncc4c(N5CC6CCC(C5)N6)nc(OCC5(CN6CC7CC6CN7CC6CCC7(CC6)CCN(C(=O)c6ccc(Cl)c(N8CCC(=O)NC8=O)c6)CC7)CC5)nc4c3F)c12 (centres unmarked)
3. CCc1c(F)ccc2cc(O)cc(-c3ncc4c(N5CC6CCC(C5)N6)nc(OCC5(CN6CCN(CCCC7CCN(C(=O)c8ccc(Cl)c(N9CCC(=O)NC9=O)c8)CC7)CC6)CC5)nc4c3F)c12
4. CCc1cccc2cc(O)cc(-c3ncc4c(N5CC6CCC(C5)N6)nc(OCC5(CN6CCN(CC7CCC8(CC7)CCN(C(=O)c7ccc(C)c(N9CCC(=O)NC9=O)c7)CC8)CC6)CC5)nc4c3F)c12

Resp:
["1 to 10 µM", "1 to 10 µM", "≤ 0.05 µM", "≤ 0.05 µM"]

Recorded values, source patent US20260166159A1.
